# measurement.description: yeast display, Sf9 membrane polyspecificity reagent, FACS + sequencing; frameworks hold sequencing errors
quantity.measured: polyreactivity (PSR sort gate)

[[record]]
sequence_record = "QVQIVESGGGLVQAGGSLRLSCAASGSNFLFYVMGWYTQAPVKERELVAAINTGVSTNYADSVKGRFTISRDNAKNTVYLQLNSLKPEDTAVYYCNALPYTSDGRGGYWGQGSQVTVSS"
result = "low polyreactivity"

[[record]]
sequence_record = "QVQLVESGGGLVQAGGSLRLSCAASGFTLYGYTMGWSRQAPGKERELVAAITVSGTSTYYADSVKGRFTISRDNAKYTVSLQMNSLKPEDTAVYYCAARPRRRYYGYDSWGQGTQVSVSS"
result = "high polyreactivity"

[[record]]
sequence_record = "QVQLVESGGGLVQAGGSLRLSCAASGRIFGWYAMGWYRQAPGKEREFVAAITVTGGSTYYADSVKGRFTISRDNAKNTVYLQMNSLKPEDTALYYCAADRWYTRTGFDYWGQVTQVTVSS"
result = "low polyreactivity"

[[record]]
sequence_record = "QVQLVESGGGLIQAGGSLRLSCAASGIIFYPYTMGWYRPAPGKERELVAAIRQSGTSTYYADSVKGRFTISRDNAKKTVYFQMNSLKPEDTAVYYCNADDHIYWRKGYDYWGQGTQVTVSS"
result = "low polyreactivity"


From here, focus on the item given below.
Item under review: QGQLVESGGALVQAGGSLRLICAASGRTFAAYSMGWYRQAPGKERELVAAISIGGSTNYADSVKVRFTISRDNAKNSVYLQMNSLKPEDSAVYYCAAPGRRYLRARIRYEYWGQGTQLTVSS . Reported polyreactivity (PSR sort gate)?
high polyreactivity
